# Experimental System: T1, 人TIGIT (膜表达人TIGIT稳转细胞株DG44-TIGIT) (human, UniProt Q495A1 22-244)
# T1 construct: whole, on cells; also called 细胞表面的TIGIT蛋白; huTIGIT
# T1 sequence (looked up): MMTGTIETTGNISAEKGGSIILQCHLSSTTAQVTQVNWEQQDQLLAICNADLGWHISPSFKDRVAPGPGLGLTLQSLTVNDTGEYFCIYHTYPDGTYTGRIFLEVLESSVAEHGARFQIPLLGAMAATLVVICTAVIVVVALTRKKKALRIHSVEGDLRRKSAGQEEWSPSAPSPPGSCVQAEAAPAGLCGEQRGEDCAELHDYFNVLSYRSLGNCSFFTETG
# Procedure Text: FACS blocking on DG44-TIGIT cells, competitor rhCD155-cFc-647 (1 ug/ml)
Parameter: IC50 (µg/mL)
Please respond with the number in µg/mL and leave the unit unwritten.

**Query** IC50 lookup needed for TDC8 (antibody, V domains shown, also called 全人源抗人TIGIT单抗TDC8) VH: DVQLQESGPGLVKPSETLSLTCTVSGGSISSKGFTWSWIRQPPGKGLEWIGQISPLDSSTSYNPSLKSRVTISVDTSKNQFSLKLSSVTAADTSVYYCARGIWTYLYGFDYWGQGTLVTVSS VL: DIVLTQSPATLSLSPGERATLSCRASQSIHAGYLAWYQQKPGQAPRLLIYWTNLRATGVPTRFSGSGSGTDFTLTISSLEPEDFAVYYCLQLMRYPPTFGQGTKLEIKR , thanks.
**Result** 0.308

More entries:
**Query** IC50 lookup needed for TBB8 (antibody, V domains shown, also called 全人源抗人TIGIT单抗TBB8) VH: DVQLQESGPGLVKPSETLSLTCTVSGYSISTGYAWSWIRQPPGKGLEWIGSISAFGGNTYYNPSLKSRVTISVDTSKNQFSLKLSSVTAADTSVYYCARTARWIAFDYWGQGTLVTVSS VL: DIVLTQSPATLSLSPGERATLSCRASQDIGVSLNWYQQKPGQAPRLLIYWTSFRATGVPTRFSGSGSGTDFTLTISSLEPEDFAVYYCQQANGVPLFTFGQGTKLEIKR , thanks.
**Result** 0.563

**Query** IC50 lookup needed for 3TB3 (antibody, V domains shown, Parent of D1Y1A; also called 全人源抗人TIGIT单抗3TB3; 野生型3TB3) VH: DVQLQESGPGLVKPSETLSLTCTVSGGSISGGYSWSWIRQPPGKGLEWIGSIVPHRSATSYNPSLKSRVTISVDTSKNQFSLKLSSVTAADTSVYYCARSYGGNRLDYWGQGTLVTVSS VL: DIVLTQSPATLSLSPGERATLSCRASQGVGIRLSWYQQKPGQAPRLLIYYTAYRATGVPTRFSGSGSGTDFTLTISSLEPEDFAVYYCLQTFGDPYTFGQGTKLEIKR , thanks.
**Result** 0.212

**Query** IC50 lookup needed for 5TB10 (antibody, V domains shown, also called 全人源抗人TIGIT单抗5TB10) VH: DVQLQESGPGLVKPSETLSLTCTVSGDSVSDAGVGWNWIRQPPGKGLEWIGTIVPRRGITTYNPSLKSRVTISVDTSKNQFSLKLSSVTAADTSVYYCARVTTAGFDYWGQGTLVTVSS VL: DIVLTQSPATLSLSPGERATLSCRASQDVKILLNWYQQKPGQAPRLLIYWTSDRATGVPTRFSGSGSGTDFTLTISSLEPEDFAVYYCQQHLDRLPYTFGQGTKLEIKR , thanks.
**Result** 0.435
